Experiment description: Water solubility / water insolubility by visual observation
Format: physicochemical
Condition details: 0.4 g sample in 4 g distilled water, 20° C., 30 minutes
Quantity kind: water solubility / water insolubility

C=C(C)C(=O)OCCO [HEMA, hydroxyethyl methacrylate]: WATER-SOLUBLE
C=C(C)C(=O)OCCOCCOCCOC(=O)C(=C)C [TEGDMA, triethylene glycol dimethacrylate]: WATER-SOLUBLE
C=C(C)C(=O)OCCOC(=O)NCCC(C)CC(C)(C)CNC(=O)OCCOC(=O)C(=C)C (stereo not shown) [UDMA]: WATER-SOLUBLE
C=CC(=O)NCCO [HEAA, hydroxyethyl acrylamide]: WATER-SOLUBLE
